meta.source: patent US9187470B2

Provide the reported IC50 of each item.
measured-target: MAPK13 (Homo sapiens (Human))
Sequence (O15264 whole entry): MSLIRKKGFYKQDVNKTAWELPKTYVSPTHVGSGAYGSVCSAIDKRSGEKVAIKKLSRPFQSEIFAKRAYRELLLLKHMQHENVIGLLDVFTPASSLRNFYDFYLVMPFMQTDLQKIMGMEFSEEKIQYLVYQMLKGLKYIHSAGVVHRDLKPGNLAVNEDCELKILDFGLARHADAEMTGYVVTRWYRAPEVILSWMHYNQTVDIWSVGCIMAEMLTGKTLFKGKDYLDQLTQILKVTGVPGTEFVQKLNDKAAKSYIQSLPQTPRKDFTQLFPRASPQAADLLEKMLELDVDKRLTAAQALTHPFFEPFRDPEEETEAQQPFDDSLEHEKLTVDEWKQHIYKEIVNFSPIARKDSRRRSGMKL
method-description: MAPK inhibitor assay: immobilized metal affinity polarization (IMAP) assay with activated MAPK13
Assay type: biochemical
condition-context: lower part of Table 4; IMAP-based biochemical assay; read-out: MAPK13 IC50

// below: answered molecules
INSERT INTO assay_data (molecule, measured_target, result) VALUES
  ('Cc1ccc(-n2nc(C(C)(C)C)cc2NC(=O)Nc2ccc3c(c2)CN(C(=O)C2CCOCC2)C3)cc1', 'MAPK13 (Homo sapiens (Human))', '8.65 µM'),
  ('Cc1cn(-c2cccc(C(=O)Nc3ccc(Oc4ccncc4)cc3)c2)cn1', 'MAPK13 (Homo sapiens (Human))', '10.2 µM'),
  ('Cn1nc(C(C)(C)C)cc1NC(=O)Nc1ccc(Oc2ccncc2)cc1', 'MAPK13 (Homo sapiens (Human))', '0.0827 µM');

// next item, IC50 requested
Which value of IC50 has been reported for Cc1ccc(-n2nc(C(C)(C)C)cc2NC(=O)Nc2ncc(CCN3CCOCC3)s2)cc1 in the records?
0.0275 µM
